Assayed System: T1, wild-type ZIKV prM/E (ZIKV SPH2015) (Zika virus, SPH2015, UniProt A0A0U3FSM8, strain)
T1 construct: also called WT prM/E; wild-type prM/E; source: HEK-293T, transfected, cells fixed and permeabilised
Test: flow cytometry on cells
Protocol Conditions: one partner purified

[
  {
    "Binder": "anti-ZIKV MAb 278-11 (antibody, V domains shown, recombinant rabbit IgG; source: 293-6E cells, cotransfected, purified (MabSelect SuRe protein A)) VH: QSLEESGGGLVQPEGSLTLACTASEFDSSSNAMCWVRQAPGKGLEWIARIYSGSGTIYYANWARGRFTISKTSSTTVTLQMTSLTDADTATYFCARYNTGGFYYDLWGPGTLVTVSS VL: ALVMTQTPASVEAAVGGTVTINCQASQRIGTNLAWYQQKPGQPPKVLIYKASTLASGVSSRFIGSGSGTDYTLTISGVECDDAATYYCQQGYSSNDADNTFGGGTEVVVK",
    "binding result": "binds"
  },
  {
    "Binder": "anti-ZIKV MAb 306-2 (antibody, V domains shown) VH: QSLEESGGDLVKPGASLTLTCTASGFDFSDRYYMCWVRQAPGKGLEWIGCIYVGSGDTYYASWAKGRFTISRTSSTTVTLQMTRLTAADTATYFCARHPGTYFTLWGPGTLVTVSS VL: DVVMTQTPSSVSAAVGGTVTINCQASQNIVNNLAWYQQRPGQPPKLLIYDTSTLASGVPSRFKGSGSGTEFTLTISDLECADAATYYCQTYYYYNKIINGFGGGTEVVVK",
    "binding result": "binds"
  },
  {
    "Binder": "anti-ZIKV MAb 242-3 (antibody, V domains shown, recombinant rabbit IgG; 99% amino acid identity with 270-12) VH: QAQLEESGGDLVKPEGSLTLTCTASGFSFTDRHYMCWIRQAPGKGLEWIACVYPGSSGSTYYASWARGRFTISKTSSTTVTLRMTSLTAADTATYFCARSSYPDSSGYSYGMDLWGPGTLVTVSS VL: DIVMTQTPASVEAAVGGTVTIKCQASQNINSNLAWYQQKPGQRPKFLMYLTSKLASGVPSRFRGSGSGTQFTLTISDLECADAATYYCQTYYDISNYGYAFGGGTEVVVK",
    "binding result": "binds"
  }
]
